nuclei count, normalised by entry:
assay: nuclear p53 accumulation, HPV+ cells – imaging, p53-positive nuclei imaging, 24 h, 48 h (AID 1508601); conditions: 24/48 h, measured here: cell number at 24 h, concentration not given here
In all, about 5,700 compounds went through this assay and about 85 (1%) were called active. The list comes from a sample in which actives are over-represented; it also holds close analogues and randomly drawn compounds.
Give just the numeric value; % need not be written.

Use these answered entries as a reference point.
molecule | nuclei count, normalised (%)
CCCCCCCCCCCCCCCCCCCC(=O)NCCO | 110
O=C(O)/C=C/CCCCCCCCC(=O)O | 111
O=C(CCCCCCC(=O)Nc1ccccc1)NO | 97.6
Nc1ccccc1NC(=O)CCCCCCC(=O)Nc1ccccc1 | 102
OCCCCCNc1nccc(-c2cnn(-c3ccccc3F)c2)n1 | 112
O=C(O)CCC/C=C\C[C@@H]1[C@@H](/C=C/[C@H](O)CCc2ccccc2)[C@H](O)C[C@@H]1O | 107

# lookup: nuclei count, normalised of Cc1ccc(NC(=O)CCCCCC(=O)Nc2ccccc2N)cc1
111

Next: CCCCC/C=C/C=C1/C=CC(=O)[C@@H]1C/C=C\CCCC(=O)O
106

# iterate: O=C1CCCc2occ(C(=O)N3CCc4[nH]nc(C5CCC5)c4C3)c21
110

Also OCCCCCNc1nccc(-c2cnn(-c3ccc(F)cc3)c2)n1 ?
103

Moving on to O=C(OC[C@@H]1O[C@H]1c1ccccc1)Oc1ccc([N+](=O)[O-])cc1
101
